# System: HIV NL4.3 strain
# PROTOCOL_DETAILS: HIV infectivity assay, reporter cell line HeLa-CD4-LTR-LacZ, β-Gal activity (Tat protein inhibition)
# Assay type: cell-based, HIV-1 (NL4.3)
# MEASUREMENT_CONTEXT: Human immunodeficiency virus 1, read-out: Infectivity IC50, HeLa-CD4-LTR-LacZ; analogs of TT-44881 (Table 1)
pIC50: −log10 of the molar value.
QUANTITY_KIND: pIC50

Completed entries (count: 2):
INPUT: State, in one line, measured pIC50 of N#Cc1ccc(NC(=O)c2cn(-c3ccccc3)c3ccccc23)cc1
OUTPUT: 5.00 to 6.00

INPUT: State, in one line, measured pIC50 of O=C(NCCCN1CCCC1=O)c1nc2ccccc2n1-c1ccccc1
OUTPUT: < 4.60

Parameter requested: pIC50. Apply to each item below.
1. O=C(NCCCn1ccnc1)c1n[nH]c2c1CCC2
2. CS(=O)(=O)N1CCN(C(=O)c2cn(-c3ccccc3)c3ccccc23)CC1
3. Cc1cccc(-n2cc(C(=O)NCCCN3CCCC3=O)c3ccccc32)c1

OUTPUT:
["< 4.00", "< 4.00", "< 4.00"]

----------
# Test system: HIV NL4.3 strain
# PROTOCOL_DETAILS: HIV infectivity assay, reporter cell line HeLa-CD4-LTR-LacZ, β-Gal activity (Tat protein inhibition)
# Format: cell-based, HIV-1 (NL4.3)
# MEASUREMENT_CONTEXT: Human immunodeficiency virus 1, read-out: Infectivity IC50
# Procedure: Next, the activity of these leads against HIV infection was evaluated using the reporter cell line HeLa-CD4-LTR-LacZ, which stably expresses the β-galactosidase (β-Gal) gene under the control of the HIV 5′ LTR. The HIV NL4.3 strain was used for these studies and β-Gal activity was measured 72 hrs post infection (FIG. 3A). […] Their anti-HIV activity was further assessed in acute replication of Jurkat T cells with the NL4.3 strain (FIG. 3A). […]
pIC50: −log10 of the molar value.
QUANTITY_KIND: pIC50

INPUT: State, in one line, measured pIC50 of O=C(NCCCn1ccnc1)C1(O)c2ccccc2-c2ccccc21 [3-36]
OUTPUT: 4.30 to 4.70

----------
# Test system: HeLa-CD4-LTR-LacZ cells
# PROTOCOL_DETAILS: Cytotoxicity assay, Cell-Titer-Glo, HeLa-CD4-LTR-LacZ
# MEASUREMENT_CONTEXT: read-out: Infectivity CC50; HeLa-CD4-LTR-LacZ; analogs of TT-44856 (Table 3)
# Protocol: Next, the activity of these leads against HIV infection was evaluated using the reporter cell line HeLa-CD4-LTR-LacZ, which stably expresses the β-galactosidase (β-Gal) gene under the control of the HIV 5′ LTR. The HIV NL4.3 strain was used for these studies and β-Gal activity was measured 72 hrs post infection (FIG. 3A). […] Their anti-HIV activity was further assessed in acute replication of Jurkat T cells with the NL4.3 strain (FIG. 3A). […]
QUANTITY_KIND: CC50

INPUT: State, in one line, measured CC50 of Cc1nccn1CCCNC(=O)C(C)(c1ccccc1)c1ccccc1
OUTPUT: 50 to 100 µM

---
INPUT: State, in one line, measured CC50 of O=C(NCCCn1ccnc1)C(c1ccccc1)c1ccccc1
OUTPUT: > 100 µM

----------
# System: HIV NL4.3 strain
# PROTOCOL_DETAILS: HIV infectivity assay, reporter cell line HeLa-CD4-LTR-LacZ, β-Gal activity (Tat protein inhibition)
# Type: cell-based, HIV-1 (NL4.3)
# MEASUREMENT_CONTEXT: Human immunodeficiency virus 1, read-out: Infectivity IC50, HeLa-CD4-LTR-LacZ; analogs of TT-44881 (Table 1)
QUANTITY_KIND: IC50

Completed entries (count: 8):
INPUT: State, in one line, measured IC50 of O=C(NCc1ccc(Cl)cn1)c1cn(-c2ccc(F)cc2)c2ccccc12
OUTPUT: > 100 µM

INPUT: State, in one line, measured IC50 of O=C(NCCCN1CCCC1=O)c1nn(-c2ccccc2)c2c1CCCC2
OUTPUT: > 50 µM

INPUT: State, in one line, measured IC50 of O=C(NCCCN1CCCC1=O)c1nn(-c2ccccc2)cc1C1CC1
OUTPUT: > 100 µM

INPUT: State, in one line, measured IC50 of O=C(NCCCN1CCCC1=O)c1nn(-c2ccccc2)c2ccccc12
OUTPUT: 50 to 100 µM

INPUT: State, in one line, measured IC50 of CC(C)c1nn(-c2ccccc2)cc1C(=O)NCCCN1CCCC1=O
OUTPUT: > 100 µM

INPUT: State, in one line, measured IC50 of CC(=O)c1cccc(CNC(=O)c2cn(-c3ccccc3)c3ccccc23)c1
OUTPUT: > 100 µM

INPUT: State, in one line, measured IC50 of O=C(CCCCN1CCCC1=O)c1nn(-c2ccccc2)c2c1CCC2
OUTPUT: 1 to 20 µM

INPUT: State, in one line, measured IC50 of Cc1cc(C(=O)N(C)CCCN2CCCC2=O)nn1-c1ccccc1
OUTPUT: > 100 µM

Attention now turns to another entry.
INPUT: State, in one line, measured IC50 of O=C(Nc1ccccc1)c1c(NCCCN2CCCC2=O)c2ccccc2[nH]c1=O
OUTPUT: > 100 µM

----------
# PROTOCOL_DETAILS: Cytotoxicity assay, Cell-Titer-Glo, HeLa-CD4-LTR-LacZ
# MEASUREMENT_CONTEXT: human, hela-cd4-ltr-lacz cells, Infectivity CC50, HeLa-CD4-LTR-LacZ; analogs of TT-44856 (Table 3)
QUANTITY_KIND: CC50

Completed entries (count: 6):
INPUT: State, in one line, measured CC50 of O=C(NCCCn1ccnc1)c1cc2cc(Cl)ccc2[nH]1
OUTPUT: > 100 µM

INPUT: State, in one line, measured CC50 of O=C(NCCCn1ccnc1)c1nn(-c2ccccc2)c2c1CCC2
OUTPUT: 1 to 10 µM

INPUT: State, in one line, measured CC50 of NC(C(=O)NCCCn1ccnc1)(c1ccccc1)c1ccccc1
OUTPUT: > 100 µM

INPUT: State, in one line, measured CC50 of CC(C(=O)NCCCn1cnc(CNC(=O)OCc2ccccc2)c1)(c1ccccc1)c1ccccc1
OUTPUT: 20 to 50 µM

INPUT: State, in one line, measured CC50 of CCC(C(=O)NCCCn1ccnc1C)(c1ccccc1)c1ccccc1
OUTPUT: > 100 µM

INPUT: State, in one line, measured CC50 of O=C(NCCCn1ccnc1)C(CCO)(c1ccccc1)c1ccccc1
OUTPUT: > 100 µM

Parameter requested: CC50. Apply to each item below.
1. CC(C(=O)NCC1CCCNC1)(c1ccccc1)c1ccccc1 (stereo not drawn)
2. CCC(C(=O)NCCCn1cnc2ccccc21)(c1ccccc1)c1ccccc1
3. O=C(NCCCn1ccnc1)c1cc(O)c2cc(Cl)ccc2n1
4. O=C(NCCCn1cnc2ccccc21)C(c1ccccc1)(c1ccccc1)c1ccccc1
5. CCc1nccn1CCCNC(=O)C(C)(c1ccccc1)c1ccccc1

OUTPUT:
1: > 100 µM; 2: 50 to 100 µM; 3: > 100 µM; 4: 20 to 50 µM; 5: > 100 µM

Parameter requested: CC50. Apply to each item below.
1. CC(C(=O)NCCCn1ccnc1)(c1ccccc1)c1ccccc1
2. CC(C(=O)NCCc1ccc(C(F)(F)F)cc1)(c1ccccc1)c1ccccc1
3. CC(C(=O)NCCCN1CCNCC1)(c1ccccc1)c1ccccc1
4. CC(C(=O)NCCCc1cccnc1)(c1ccccc1)c1ccccc1
5. CC(C(=O)NCCc1ccccc1)(c1ccccc1)c1ccccc1
6. O=C(NCCCn1ccnc1)C1c2ccccc2Oc2ccccc21
7. CCCCOCCC(C(=O)NCCCn1ccnc1)(c1ccccc1)c1ccccc1

OUTPUT:
1. > 100 µM
2. 50 to 100 µM
3. > 100 µM
4. 10 to 30 µM
5. 20 to 50 µM
6. > 100 µM
7. > 100 µM

Parameter requested: CC50. Apply to each item below.
1. O=C1N(CCCn2ccnc2)CCC1(c1ccccc1)c1ccccc1
2. CCCC(=O)NCc1cn(CCCNC(=O)C(C)(c2ccccc2)c2ccccc2)cn1
3. CN1CCN(CCNC(=O)C(C)(c2ccccc2)c2ccccc2)CC1
4. CC(C)(C(=O)NCCCn1ccnc1)c1cccc(C(F)(F)F)c1
5. Cc1nccn1CCCNC(=O)C(C)(c1ccccc1)c1ccccc1
6. O=C(NCCCn1ccnc1)c1ccc(-n2cc(Br)cn2)cc1

OUTPUT:
1. > 100 µM
2. > 100 µM
3. > 100 µM
4. > 100 µM
5. > 100 µM
6. > 100 µM

----------
For each of the compounds below, state its CC50.
# PROTOCOL_DETAILS: Cytotoxicity assay, Cell-Titer-Glo, HeLa-CD4-LTR-LacZ
# MEASUREMENT_CONTEXT: human, hela-cd4-ltr-lacz cells, Infectivity CC50, HeLa-CD4-LTR-LacZ; analogs of TT-44856 (Table 3)

INPUT: State, in one line, measured CC50 of CC1(C(=O)NCCCn2ccnc2)c2ccccc2-c2ccccc21
OUTPUT: > 100 µM

INPUT: State, in one line, measured CC50 of CC(NC(=O)C(C)(c1ccccc1)c1ccccc1)c1ccccc1 (stereo not drawn)
OUTPUT: > 100 µM

INPUT: State, in one line, measured CC50 of CCCC(C(=O)NCCCn1ccnc1)(c1ccccc1)c1ccccc1
OUTPUT: > 100 µM

Parameter requested: CC50. Apply to each item below.
1. O=C(NCCCn1ccnc1)C(c1ccccc1)(c1ccccc1)c1ccccc1
2. COc1ccc(C(C(=O)NCCCn2ccnc2)c2ccccc2)cc1 (stereo not drawn)

OUTPUT:
> 100 µM
> 100 µM

Parameter requested: CC50. Apply to each item below.
1. CCC(C(=O)NCCCn1ccnc1)c1ccccc1 (stereo not drawn)
2. CCC(C(=O)NCCCn1ccnc1)(c1ccccc1)c1ccccc1
3. CC(C)c1nccn1CCCNC(=O)C(C)(c1ccccc1)c1ccccc1

OUTPUT:
1. > 100 µM
2. > 100 µM
3. 50 to 100 µM

Parameter requested: CC50. Apply to each item below.
1. CCCC(C(=O)NCCCn1c(C)nc2ccccc21)(c1ccccc1)c1ccccc1
2. CC(C(=O)Nc1cc(OCc2ccccc2)ccn1)(c1ccccc1)c1ccccc1
3. CC(NC(=O)C(c1ccccc1)c1ccccc1)c1ccc(-n2ccnc2)cc1 (stereo not drawn)
4. COc1ccccc1CCNC(=O)C(C)(c1ccccc1)c1ccccc1
5. O=C(NCCCn1ccnc1)c1cc(Cl)nc2ccccc12
6. O=C(NCCCn1ccnc1)c1ccc2ccccc2c1
7. O=C(NCCCn1ccnc1)c1cc2cccnc2[nH]1
8. O=C(NCCCn1ccnc1)C(c1ccccc1)c1ccccc1

OUTPUT:
1: 20 to 50 µM; 2: > 100 µM; 3: > 100 µM; 4: 25 to 50 µM; 5: > 100 µM; 6: > 100 µM; 7: > 100 µM; 8: > 100 µM
